B1: tRNA (parent)
chain: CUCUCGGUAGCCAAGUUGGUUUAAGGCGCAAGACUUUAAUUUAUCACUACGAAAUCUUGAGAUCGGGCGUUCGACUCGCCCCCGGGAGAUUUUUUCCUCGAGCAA

- Variants of: B1
- protocol_summary: nonsense suppression (GFP-seq) (ratio to wild type); higher = more function; SUP4oc tRNA, yeast GFP reporter sort-seq
This sample holds only a part of the variants without activity.
Recorded nonsense suppression determines the group label, using bin 0 = under 0.04, bin 1 = from 0.04 up to 0.06, bin 2 = 0.06 and over

{"mutation_key": "A9G C68U", "classification": "bin 2"}
{"mutation_key": "U17A U55C", "classification": "bin 2"}
{"mutation_key": "A24G A60G", "classification": "bin 0"}
{"mutation_key": "C5A A14U A33C U55C", "classification": "bin 0"}
{"mutation_key": "G6C A9U G65U G85C", "classification": "bin 0"}
{"mutation_key": "G10A G85U", "classification": "bin 0"}
{"mutation_key": "G78U C83A", "classification": "bin 1"}
{"mutation_key": "U22C U76C", "classification": "bin 2"}

Lookup: Hello team, could you let me know which band the following variant falls into: A13G C56G U71G
Found: bin 0

Lookup: Band of U35C U63G ?
Found: bin 0

Lookup: Assign a category based on measured nonsense suppression for U20A C34U G66U and give only the class name.
Found: bin 0
